- target or system: human σ2 receptor (TMEM97) (Homo sapiens, UniProt Q5BJF2)
- Sequence (Q5BJF2 whole entry): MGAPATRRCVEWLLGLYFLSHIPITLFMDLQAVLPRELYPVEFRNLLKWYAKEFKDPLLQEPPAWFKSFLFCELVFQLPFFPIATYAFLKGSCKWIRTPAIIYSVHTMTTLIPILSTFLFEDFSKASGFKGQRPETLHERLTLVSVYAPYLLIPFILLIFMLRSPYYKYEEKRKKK
- protocol details: biochemical
- Assay type: Expi293 membranes
pKi: −log10 of the molar value.
Assign True whenever pKi does not fall below 8; assign False whenever it does.

molecule	label
CC[C@@H](CO)N1CCC(CCc2ccc(F)cc2F)CC1	True

Hi, just wondering whether "CCc1nnsc1C(=O)N[C@H]1[C@@H]2CN(CC3CCCCCC3)C[C@@H]21" shows pKi of 8 or higher. False

Hi, just wondering whether "Cc1ccc([C@H]2CCN(CC3(O)CCC3)C2)c(C)c1" shows pKi of 8 or higher. False

Hi, just wondering whether CC1CCC(O)(CN2CC(Cc3ccc(F)c(F)c3)C2)CC1 (stereo not shown) shows pKi of 8 or higher. True

====

- target or system: human σ2 receptor (TMEM97) (Homo sapiens)
- protocol details: biochemical
- Type: Expi293 membranes
- measurement parameters: read-out: % of control remaining
For each of the compounds below, state its remaining activity at 1 µM.
Answers are plain numbers, in %.

Solved entries:
compound	measure unit	remaining activity at 1 µM
CC[C@@H](C(N)=O)N1CCC(NC(=O)[C@H]2Cc3ccc(Cl)cc32)CC1 [ZINC001004070100]	%	85.5
O=C([C@@H]1CCCN1c1ncccn1)N1CC[C@@H](N2CC[C@H](O)C2)C1 [ZINC000627254962]	%	114
Cc1n[nH]cc1C(=O)NC1CN(C(=O)[C@H]2C[C@@H]3CCCCN3C2)C1 [ZINC000997292482]	%	87.9
C[C@@H]1CN(C(=O)C2CN(C)CCN(C)C2)CC(C)(C)O1 [ZINC000906421824]	%	127
Cc1cc(NC(=O)C(=O)N2CC[C@@H](NC(=O)c3cncn3C)C2)no1 [ZINC000941361883]	%	111
Cc1cc(N(C)C)ccc1CNC(=O)C(=O)NC[C@@H]1COCCN1 [ZINC000861751799]	%	106
CCC(=O)N1CCN([C@H]2CCN(C(=O)c3c[nH]c(=O)cn3)C2)CC1 [ZINC000956566890]	%	112
O=C(N[C@H]1CCN(c2cc(Cl)c(O)nn2)C1)c1c[nH]c(=O)cn1 [ZINC001058532763]	%	95.3
CNC(=O)CC[C@H]1CCCCN1Cc1cc(-c2ccccc2)on1 [ZINC000286502332]	%	139

Please give the documented remaining activity at 1 µM of Fc1ccc(NC(=S)NC2CCN([C@H]3CCOC3)CC2)cc1 [ZINC000853031922] 115

====

For each of the compounds below, state its remaining activity at 1 µM.
- target or system: human σ2 receptor (TMEM97) (Homo sapiens, UniProt Q5BJF2)
- protocol details: biochemical
- Type: Expi293 membranes
- measurement parameters: read-out: % of control remaining
Answers are plain numbers, in %.

Solved entries:
compound	remaining activity at 1 µM / %
O=C([C@@H]1C[C@H]1C(F)(F)F)N(CCN1CCCCCC1)C1CCC1	37.5
CN1CCO[C@@H](CN(Cc2cnc(-c3cnn(C)c3)nc2)CC2CC2)C1	120
Cc1cc(C)c(/C=C\CN2CCC[C@@H](O)C2)cc1C	62.3
COCCN1CCC[C@@H]1CNC(=O)C(=O)N1CCC[C@@H](C(C)C)CC1	113
N#CC1(c2ccccn2)CCN([C@@H]2Cc3ccccc3[C@@H]2O)CC1	112

Here are 7 compounds. What values of remaining activity at 1 µM were reported for them?
1. CC[C@@H](C)N1CCN(c2nc(N)nc(C(F)(F)C(F)(F)F)n2)CC1
2. C[C@@H]1CN(C(=O)Cc2cncnc2)C[C@H]1NC(=O)CCn1cccn1
3. C[C@H]1C[C@@H](NC(=O)C(=O)Nc2cnn(CC(F)F)c2)CN1C1CC1
4. O=C(NCCN1CCNC1=O)C(=O)NC[C@H]1CCc2ccccc21
5. Cc1c(Br)cccc1C(=O)N1CC[C@@H]2CCN(C)C[C@H]21
6. CCCC1CCC(CN2CCN(CC(=O)N(CC)CC)CC2)CC1 (stereo not shown)
7. Cc1cccc(NC(=O)N(C)C[C@H]2CCCN2C)c1C(=O)N1CCCC1

[35, 89.9, 111, 107, 79.1, 34, 99.3]

The origin of these recorded values is paper doi:10.1101/2021.04.29.441652v1.
